# System: S. aureus ATCC 29213
# test.details: MIC determination, S. aureus ATCC 29213
# measurement.context: S. aureus ATCC 29213 MIC screening; active = MIC ≤ 8 μg/mL
endpoint.label: antibacterial activity (in words)

# compound, antibacterial activity (in words)
data = [
    ("Cc1nc(-c2ccc(Oc3ccccc3)cc2)no1 [113a]", "abolishes activity"),
    ("O=c1[nH]c(-c2ccc(Oc3ccccc3)cc2)no1 [112a]", "abolishes activity"),
    ("CC(C)CNc1c[nH]nc1-c1nc(-c2ccc(Oc3ccc(C(F)(F)F)cc3)cc2)no1 [105b]", "did not extend"),
    ("O=[N+]([O-])c1c[nH]c(-c2nc(-c3ccc(Oc4ccc(C(F)(F)F)cc4)cc3)no2)c1 [78b]", "retained good activity"),
    ("FC(F)(F)c1ccc(Oc2ccc(-c3noc(-c4n[nH]cc4NC4CCCC4)n3)cc2)cc1 [107b]", "did not extend"),
    ("FC(F)(F)c1ccc(Oc2ccc(-c3noc(-c4c[nH]cn4)n3)cc2)cc1 [76b]", "retained good activity"),
    ("O=[N+]([O-])c1cc(-c2nc(-c3ccc(Oc4ccc(C(F)(F)F)cc4)cc3)no2)cnc1O [77b]", "retained good activity"),
]

Please find the next compound below.
Sure, the documented antibacterial activity (in words) for CCCCNc1c[nH]nc1-c1nc(-c2ccc(Oc3ccc(C(F)(F)F)cc3)cc2)no1 [104b] is did not extend
